- assay_target: human vasopressin V1b receptor (Homo sapiens)
- Sequence (P47901 whole entry): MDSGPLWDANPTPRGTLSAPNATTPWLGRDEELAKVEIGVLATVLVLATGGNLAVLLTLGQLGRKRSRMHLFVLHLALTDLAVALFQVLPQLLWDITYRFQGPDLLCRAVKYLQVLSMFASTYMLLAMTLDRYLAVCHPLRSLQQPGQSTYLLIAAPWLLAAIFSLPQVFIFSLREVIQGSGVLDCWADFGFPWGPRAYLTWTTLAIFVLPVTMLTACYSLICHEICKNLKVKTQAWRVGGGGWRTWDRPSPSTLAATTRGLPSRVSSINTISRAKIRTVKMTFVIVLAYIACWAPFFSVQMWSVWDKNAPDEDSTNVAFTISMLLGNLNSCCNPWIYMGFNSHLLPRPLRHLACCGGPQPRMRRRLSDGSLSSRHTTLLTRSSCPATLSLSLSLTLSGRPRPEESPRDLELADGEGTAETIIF
- assay_method_text: biochemical
- details: Ki(h-V1b)* [nM], CHO-K1 cell membranes, displacement of 3H-AVP
reported_metric: Ki

| smiles_record | assay_target | Ki |
| --- | --- | --- |
| CCOc1ncccc1[C@]1(NC(=O)N2CC3(CN(CCN4CCOCC4)C3)C2)C(=O)N(S(=O)(=O)c2ccccc2OC)c2ccc(C#N)cc21 | human vasopressin V1b receptor (Homo sapiens) | 10 to 100 nM |
| CCOc1ncccc1[C@]1(NC(=O)N2CC3(C2)CN(C2CCN(C)CC2)C3)C(=O)N(S(=O)(=O)c2ccc(OC)cc2)c2ccc(C#N)cc21 | human vasopressin V1b receptor (Homo sapiens) | 10 to 100 nM |

With those in mind, consider the next molecule.
In: Quick check: Ki of CCOc1ncccc1[C@]1(NC(=O)N2CC3(CN(CCN4CCOCC4)C3)C2)C(=O)N(S(=O)(=O)c2ccc(OC)cc2F)c2ccc(C#N)cc21 ?
Out: < 1 nM
